# pIC50 values compiled below
molecular target: PDE-4A (Homo sapiens)
Sequence (P27815 342-704): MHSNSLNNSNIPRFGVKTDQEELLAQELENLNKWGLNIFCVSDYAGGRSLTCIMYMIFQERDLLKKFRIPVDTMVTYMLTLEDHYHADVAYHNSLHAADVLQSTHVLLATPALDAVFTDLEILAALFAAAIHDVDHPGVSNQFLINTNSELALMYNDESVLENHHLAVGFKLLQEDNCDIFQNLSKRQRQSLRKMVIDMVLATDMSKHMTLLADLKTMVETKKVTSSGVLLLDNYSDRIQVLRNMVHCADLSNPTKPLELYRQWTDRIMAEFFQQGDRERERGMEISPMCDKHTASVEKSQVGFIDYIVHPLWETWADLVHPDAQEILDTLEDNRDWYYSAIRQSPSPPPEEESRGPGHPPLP
pIC50: −log10 of the molar value.

Some solved cases for reference:
[[record]]
compound = "CCOc1nc(N2CCNCC2)nc2c1sc1nc(-c3ccc(Oc4ccc(OC)cc4)cc3)cc(CC)c12"
test_system = "PDE-4A (Homo sapiens)"
value_type = "pIC50"
test_value = "> 8.70"

[[record]]
compound = "CCOc1nc(N2CCNCC2)nc2c1sc1nc(-c3ccc(C(O)c4cccnc4)cc3)nc(C)c12 (stereo not drawn)"
test_system = "PDE-4A (Homo sapiens)"
value_type = "pIC50"
test_value = "7.30 to 8.70"

[[record]]
compound = "CCOc1nc(N2CCNCC2)nc2c1sc1nc(-c3ccc(OC(C)C)cc3)nc(C)c12"
test_system = "PDE-4A (Homo sapiens)"
value_type = "pIC50"
test_value = "7.30 to 8.70"


Any idea what pIC50 came out for CCOc1nc(N2CCNCC2)nc2c1sc1nc(-c3ccc(OCc4ccc([N+](=O)[O-])cc4)cc3)cc(C(F)(F)F)c12 on PDE-4A (Homo sapiens)?
7.30 to 8.70

Entry CCOc1nc(N2CCNCC2)c2sc3nc(-c4ccc(OC)cc4)cc(C)c3c2n1 , system PDE-4A (Homo sapiens): what pIC50 was measured?
7.30 to 8.70

Record lookup: for PDE-4A (Homo sapiens), what pIC50 belongs to Cc1cc(-c2ccccc2)nc2sc3c(N4CCNCC4)nc(OCCO)nc3c12 ?
7.30 to 8.70

Lab request: please report pIC50 under test system PDE-4A (Homo sapiens) for CCOc1nc(N2CCNCC2)c2sc3nc(-c4ccc5c(c4)OCO5)cc(C)c3c2n1
7.30 to 8.70

Measured values drawn from patent US8058285B2 for this set.
